# assayed system: DRB1*1501 (Homo sapiens, UniProt P01903+P01911)
# experimental details: biochemical
# Format: binding
pIC50: −log10 of the molar value.

compound	assayed system	pIC50
CSCC[C@H](NC(=O)[C@H](Cc1ccc(O)cc1)NC(=O)[C@H](Cc1ccc(O)cc1)NC(=O)[C@@H](NC(=O)[C@@H](N)CO)C(C)C)C(=O)N[C@H](C(=O)N[C@@H](CC(=O)O)C(=O)N[C@@H](C)C(=O)NCC(=O)N[C@H](C(=O)N[C@@H](Cc1c[nH]c2ccccc12)C(=O)N[C@@H](CC(=O)O)C(=O)N[C@@H](CCCCN)C(=O)N[C@H](C(=O)N[C@@H](C)C(=O)O)[C@@H](C)O)[C@@H](C)O)[C@@H](C)O [Peptide 90.0182]	DRB1*1501 (Homo sapiens, UniProt P01903+P01911)	7.37
CC[C@H](C)[C@H](NC(=O)[C@@H](NC(=O)[C@@H]1CCCN1C(=O)[C@@H](NC(=O)[C@@H](NC(=O)[C@H](CC(N)=O)NC(=O)CNC(=O)[C@H](CO)NC(=O)[C@H](CS)NC(=O)[C@H](CC(C)C)NC(=O)[C@H](CCCCN)NC(=O)[C@H](CCCNC(=N)N)NC(=O)[C@H](CCCNC(=N)N)NC(=O)[C@@H](N)CCCCN)[C@@H](C)O)[C@@H](C)O)[C@@H](C)CC)C(=O)N[C@@H](Cc1c[nH]cn1)C(=O)O [Peptide 1601.16]	DRB1*1501 (Homo sapiens, UniProt P01903+P01911)	5.03
